The measured values listed here are drawn from paper PMC10835127.

Please provide measured HCV Norm MEAN for the entries that follow.
# System: HCV replicon
# Format: cell-based
# measurementConditions: normalized mean of HCV replicon readout

>>> result("YFADLLI [CPEP50]")
0.09464

Go through the list and state HCV Norm MEAN for each entry.
1. IHTHARFLIT [CPEP139]
2. EDPNEE [CPEP68]
3. IKQEDIKP [CPEP109]
4. PPIPPPR [CPEP151]
5. RRPSRPFRK [CPEP88]
6. WKSKKTP [CPEP78]

Completion:
1: 0.5677; 2: 0.2553; 3: 0.2159; 4: 0.3254; 5: 0.6746; 6: 0.1248

Go through the list and state HCV Norm MEAN for each entry.
1. CPEP52: peptide of the viral peptide library; sequence page not shown (CFITKALGISYG)
2. ELLSGLQEWL [CPEP85]
3. CPEP127: peptide of the viral peptide library; sequence page not shown (LVKPTVYVYSR)
4. CPEP102: peptide of the viral peptide library; sequence page not shown (PHGPVQLSYYD)
5. SEKHFRETEV [CPEP106]

Completion:
1: 0.3655; 2: 0.7957; 3: 0.6257; 4: 0.8145; 5: 1.4

----------
# Tested on: EBV
# measurementConditions: normalized mean of EBV replication readout; peptide screen
Please provide measured EBV Norm MEAN for the entries that follow.
Answers are plain numbers.

>>> measurednumber("ISNLPYTIKYKIFEQQ [CPEP120]")
1.211
>>> measurednumber("PVHAGPIAPGQMREP [CPEP81]")
0.3978
>>> measurednumber("CPEP89: peptide of the viral peptide library; sequence page not shown (YDVLKAACKSVIKT)")
0.6285
>>> measurednumber("SVWIPVNEGASTSGM [CPEP77]")
1.026
>>> measurednumber("CPEP103: viral library peptide from HCV NS4A targeting EEF1A1 (GCVVIVGRIVLSGK)")
0.7665
>>> measurednumber("CPEP96: peptide of the viral peptide library; sequence page not shown (GRKKRRQRRRAHQ)")
1.164
>>> measurednumber("SAPCLLKLSTTLLCLEI [CPEP124]")
0.5543
>>> measurednumber("CPEP99: peptide of the viral peptide library; sequence page not shown (SWESHKSGGETRL)")
0.7952

Go through the list and state EBV Norm MEAN for each entry.
1. RTYGTWEDLFCDESL [CPEP128]
2. LGNIKGILGKKDKDG [CPEP51]
3. CPEP98: peptide of the viral peptide library; sequence page not shown (PLPPTKAPPIPPPR)
4. EDLLNEPGQPLDLSC [CPEP104]

Completion:
1: 1.318; 2: 0.7752; 3: 0.8005; 4: 0.504

----------
# Test system: influenza A H1N1 virus
# measurementConditions: 0,823 µM peptide, 48 hr post-treatment, A549
Please provide measured Neuraminidase activity normalized to vehicle for the entries that follow.

>>> result("RDVLCLRPVGAESR [CPEP94]")
"0,7797"
>>> result("GPSDSGAGRAAEDRKCL [CPEP137]")
"1,0904"
>>> result("RRRETQV [CPEP148]")
"0,8071"
>>> result("RPEPTAPPEE [CPEP116]")
"0,9564"

Go through the list and state Neuraminidase activity normalized to vehicle for each entry.
1. CPEP103: viral library peptide from HCV NS4A targeting EEF1A1 (GCVVIVGRIVLSGK)
2. ISNLPYTIKYKIFEQQ [CPEP120]
3. DLYCYEQLNDSSEEE [CPEP55]

Completion:
["0,8342", "1,0562", "0,8699"]

Prompt: So what's the measured Neuraminidase activity normalized to vehicle for this one? KKTKSLP [CPEP75]
Completion: 0,8942
